Source listed as IntAct's records for PubMed 18166655.

B1: Death-associated inhibitor of apoptosis 2 (Drosophila melanogaster (Fruit fly)), Q24307 (parent)
chain: MTELGMELESVRLATFGEWPLNAPVSAEDLVANGFFATGNWLEAECHFCHVRIDRWEYGDQVAERHRRSSPICSMVLAPNHCGNVPRSQESDNEGNSVVDSPESCSCPDLLLEANRLVTFKDWPNPNITPQALAKAGFYYLNRLDHVKCVWCNGVIAKWEKNDNAFEEHKRFFPQCPRVQMGPLIEFATGKNLDELGIQPTTLPLRPKYACVDARLRTFTDWPISNIQPASALAQAGLYYQKIGDQVRCFHCNIGLRSWQKEDEPWFEHAKWSPKCQFVLLAKGPAYVSEVLATTAANASSQPATAPAPTLQADVLMDEAPAKEALALGIDGGVVRNAIQRKLLSSGCAFSTLDELLHDIFDDAGAGAALEVREPPEPSAPFIEPCQATTSKAASVPIPVADSIPAKPQAAEAVANISKITDEIQKMSVATPNGNLSLEEENRQLKDARLCKVCLDEEVGVVFLPCGHLATCNQCAPSVANCPMCRADIKGFVRTFLS
partner: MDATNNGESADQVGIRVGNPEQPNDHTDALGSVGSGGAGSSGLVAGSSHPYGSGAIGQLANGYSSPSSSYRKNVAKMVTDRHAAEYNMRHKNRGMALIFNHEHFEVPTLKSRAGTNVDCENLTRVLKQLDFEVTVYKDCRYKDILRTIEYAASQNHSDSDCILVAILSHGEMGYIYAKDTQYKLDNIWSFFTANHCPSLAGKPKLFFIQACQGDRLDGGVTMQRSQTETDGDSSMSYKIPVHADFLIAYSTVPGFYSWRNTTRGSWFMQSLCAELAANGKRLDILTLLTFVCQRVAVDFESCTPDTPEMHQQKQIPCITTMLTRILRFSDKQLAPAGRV

- Variants of: B1
- test_parameters: with drice_drome Drice

{"variant": "D163A", "effect of a mutation on the interaction": "with no effect"}
{"variant": "C149G", "effect of a mutation on the interaction": "with no effect"}
